Attribution: patent US20210301012A1

Answer each item with its documented koff.
- Measured on: T1, IL-6-gp80 complex (human, UniProt P05231 28-212; P08887 20-358)
- T1 construct: Non-covalent transient heterodimer formed by mixing IL-6 and gp80
- Protocol text: SPR (BIAcore 3000), His-tagged VHH captured from supernatant on Ni-NTA chip, equimolar IL-6 + gp80 (50 nM each) injected
Phrase the answer as number then unit, nothing more needed.

State the recorded koff for every item in the following list.
1. VHH6 Y27A (VHH, Tested as ExpiHEK supernatant; not shown: C-terminal His tag (captured on NTA chip)) VHH: DVQFVESGGGSVHAGGSLRLNCATSGAIYSTYCMGWFRQAPGKEREGVAHIYTNSGRTYYADSVKGRFTISQDNAKNTVYLQMNSLKPEDTAIYYCAARPSIRCASFSATEYKDWGQGTQVTVSS
2. VHH6 N74A (VHH, Tested as ExpiHEK supernatant; not shown: C-terminal His tag (captured on NTA chip)) VHH: DVQFVESGGGSVHAGGSLRLNCATSGYIYSTYCMGWFRQAPGKEREGVAHIYTNSGRTYYADSVKGRFTISQDAAKNTVYLQMNSLKPEDTAIYYCAARPSIRCASFSATEYKDWGQGTQVTVSS
3. VHH6 Y32A (VHH, Tested as ExpiHEK supernatant; not shown: C-terminal His tag (captured on NTA chip)) VHH: DVQFVESGGGSVHAGGSLRLNCATSGYIYSTACMGWFRQAPGKEREGVAHIYTNSGRTYYADSVKGRFTISQDNAKNTVYLQMNSLKPEDTAIYYCAARPSIRCASFSATEYKDWGQGTQVTVSS
4. VHH6 K113A (VHH, Tested as ExpiHEK supernatant; not shown: C-terminal His tag (captured on NTA chip)) VHH: DVQFVESGGGSVHAGGSLRLNCATSGYIYSTYCMGWFRQAPGKEREGVAHIYTNSGRTYYADSVKGRFTISQDNAKNTVYLQMNSLKPEDTAIYYCAARPSIRCASFSATEYADWGQGTQVTVSS

OUT:
["0.0007 s⁻¹", "0.00015 s⁻¹", "0.0003 s⁻¹", "0.00026 s⁻¹"]
